These measurements were taken from ChEMBL document CHEMBL4257511.

# assay: Toxicity in Caenorhabditis elegans N2 L1 larva assessed as mortality incubated for 30 mins on rotator and measured after 24 hrs
# Type: organism-based
# experimental parameters: in vivo
recorded metric: LC50 at 24 h (mM)
Answer with a number only, understood to be in mM.

Find the recorded LC50 at 24 h belonging to CCOC(=O)C1=C(C)NC(=S)NC1c1cccc(O)c1 (stereo unspecified) and report it.
80.1
